Origin of the recorded values: ChEMBL document CHEMBL1139156

Molecular target: Histamine H3 receptor (Homo sapiens)
Sequence (Q9Y5N1 whole entry): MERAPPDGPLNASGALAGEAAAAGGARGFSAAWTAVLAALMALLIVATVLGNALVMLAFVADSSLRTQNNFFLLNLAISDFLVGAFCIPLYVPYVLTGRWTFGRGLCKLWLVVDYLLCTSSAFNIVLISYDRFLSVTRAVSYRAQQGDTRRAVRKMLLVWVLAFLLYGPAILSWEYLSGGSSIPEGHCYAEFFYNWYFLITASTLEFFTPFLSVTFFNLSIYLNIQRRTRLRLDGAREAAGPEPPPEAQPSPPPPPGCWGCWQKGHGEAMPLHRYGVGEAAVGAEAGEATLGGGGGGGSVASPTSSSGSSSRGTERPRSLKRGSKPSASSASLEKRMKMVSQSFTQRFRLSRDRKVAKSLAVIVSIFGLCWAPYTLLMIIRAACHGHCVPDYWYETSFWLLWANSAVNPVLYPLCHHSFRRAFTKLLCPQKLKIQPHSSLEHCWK

{"compound": "CN1Cc2cc(OCCCN3CCCCC3)ncc2C(c2ccc(Cl)c(F)c2)C1 (configuration not stated)", "target": "Histamine H3 receptor (Homo sapiens)", "Ki": "7 nM"}
{"compound": "CC(C)N1CCC(COc2cc3c(cn2)C(c2ccc(Cl)c(Cl)c2)CNC3)CC1 (configuration not stated)", "target": "Histamine H3 receptor (Homo sapiens)", "Ki": "13 nM"}

====

compounds and their reported log10 of Kb
Biological target: Histamine H3 receptor (Homo sapiens)
Assay: Antagonist activity at human histamine H3 receptor expressed in SK-N-MC cells assessed as effect on cAMP accumulation
Format: functional, cell-based
Settings: read-out: pA2 (converted)
metric_name: log10 of Kb (log10 of the value in nM)

{"compound": "c1ccc(C2CNCc3cc(OCCCN4CCCCC4)ncc32)cc1 (stereo unspecified)", "log10 of Kb": -0.14}
{"compound": "Clc1ccc(C2CNCc3cc(OCCCN4CCCCC4)ncc32)cc1 (stereo unspecified)", "log10 of Kb": 0.59}
{"compound": "COc1ccc(C2CNCc3cc(OCC4CCN(C(C)C)CC4)ncc32)cc1 (stereo unspecified)", "log10 of Kb": 0.55}
{"compound": "CN1Cc2cc(OCCCN3CCCCC3)ncc2C(c2ccccc2F)C1 (stereo unspecified)", "log10 of Kb": 0.02}
{"compound": "CN1Cc2cc(OCCCN3CCCCC3)ncc2C(c2ccc(F)cc2)C1 (stereo unspecified)", "log10 of Kb": 0.55}
{"compound": "COc1ccc(C2CN(C)Cc3cc(OCCCN4CCOCC4)ncc32)cc1 (stereo unspecified)", "log10 of Kb": 1.07}
{"compound": "CCN(CC)CCCOc1cc2c(cn1)C(c1ccccc1)CN(C)C2 (stereo unspecified)", "log10 of Kb": -0.18}
{"compound": "CN1Cc2cc(OCCCN3CCCCC3)ncc2C(c2ccc(Cl)c(Cl)c2)C1 (stereo unspecified)", "log10 of Kb": 1.26}
{"compound": "CN1Cc2cc(OCCCN3CCCCC3)ncc2C(c2ccc(Cl)c(F)c2)C1 (stereo unspecified)", "log10 of Kb": 1.22}
{"compound": "COc1cccc(C2CN(C)Cc3cc(OCCCN4CCCCC4)ncc32)c1 (stereo unspecified)", "log10 of Kb": 1.41}
{"compound": "CN1Cc2cc(OCCCN3CCCCC3)ncc2C(c2cccc(Cl)c2)C1 (stereo unspecified)", "log10 of Kb": 0.99}
